# TARGET UNDER TEST: T1, human LAIR-1-ECD (human, UniProt Q6GTX8 22-165)
# T1 construct: Recombinant, expressed in mammalian cells; also called extracellular region of human LAIR-1
# T1 chain: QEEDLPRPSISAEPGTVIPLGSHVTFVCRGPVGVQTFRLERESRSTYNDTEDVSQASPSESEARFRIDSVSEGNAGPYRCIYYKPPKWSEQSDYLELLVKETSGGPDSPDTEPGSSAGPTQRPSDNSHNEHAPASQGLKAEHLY
# ASSAY PROTOCOL: SPR (Biacore) as in Example 2
PARAMETER: kon (M⁻¹ s⁻¹)
Express your answer in M⁻¹ s⁻¹, writing the number without its unit.

BINDER: humanized anti-LAIR-1 antibody Hz47H1.v4 (antibody, human IgG1, kappa, N297G, V domains shown, Humanized 47H1 with reengineered VH CDR2 and VL CDR2) VH: EVQLVESGGGLVQPGGSLRLSCAASGFTFNINAMNWVRQAPGKGLEWVARIRTKNYNYATFYADSVKDRFTISRDDSKNSLYLQMNSLKTEDTAVYYCVRDRAGFFAYWGQGTTVTVSS VL: DIQMTQSPSSLSASVGDRVTITCLASQTIGTWLGWYQQKPGKAPKLLIYAATSLAEGVPSRFSGSGSGTDFTLTISSLQPEDFATYYCQQLYSTPLTFGGGTKVEIKR
UNIT ANNOTATION: M⁻¹ s⁻¹
NUMERIC RESULT: 2.3e+06
//
BINDER: humanized anti-LAIR-1 antibody Hz62G10.v1 (antibody, human IgG1, kappa, N297G, V domains shown, Humanized 62G10) VH: EVQLVESGGGLVKPGGSLRLSCAASGFTFNINAMNWVRQAPGKGLEWVARIRTKNNNFATYYADSVKDRFTISRDDSKNTLYLQMNSLKTEDTAVYYCVRGPYFDYWGQGTLVTVSS VL: DIQMTQSPSSLSASVGDRVTITCLASQTIGTWLAWYQQKPGKAPKLLIYAATSLADGVPSRFSGSGSGTDFTLTISSLQPEDFATYYCQQLYSTPYTFGGGTKVEIKR
UNIT ANNOTATION: M⁻¹ s⁻¹
NUMERIC RESULT: 700000

Now consider a different binder.
State the recorded kon for this entry: anti-LAIR-1 antibody ch62G10 (antibody, V domains shown, The prefix 'ch' is not defined) VH: EVQLVETGGGLVQPKGSLKLSCATSGFTFNINAMNWVRQAPGKGLEWVARIRTKNNNFATYYADSVKDRFTISRDDSQSMLYLQMNNLKTEDTAMYYCVRGPYFDYWGQGTTLTVSS VL: DIQMTQSPASQSASLGESVTITCLASQTIGTWLAWYQQKPGKSPQLLIYAATSLADGVPSRFSGSGSGTKFSFKISNLQAEDFVTYYCQQLYSTPYTFGGGTKLEIK 770000
